Measured values drawn from PubChem BioAssay (NCATS) for this set.

Method summary: Quantitative High-Throughput drug screen in 47 multiple myeloma cell lines against the NCATS MIPE library collection: PCM6_Riken cell viability assay (AID 1919870); further: nearly all actives have a fitted effect of over 30% in size
Recorded conditions: CellTiter-Glo ATP, 48 h; series mostly up to 45.8 µM
Source text: PI: Beverly A. Mock Ph.D. Laboratory of Cancer Biology and Genetics, Center for Cancer Research, National Cancer Institute, National Institute of Health, Bethesda, Maryland […] 5; Detector; 425V; Luminescence; Viewlux PerkinElmer. […] 1. […] Briefly, the corresponding myeloma cell lines were screened in 1,536-well plates with 500 cells, 5-uL per well for inhibition of cell viability (assessed by measuring ATP levels with CellTiterGlo). […]
Records with an inconclusive call do not appear. Active and inactive are the calls of the source. The call rests on the fitted dose curve; in most records, active means well fitted cell-killing curve with a large enough effect; inconclusive means small, poorly fitted or top-dose-only effect, or effect the other way; inactive means no such curve, though single readings can be large or run the other way.
Your answer must be one of the following: true (1) (active), false (0) (inactive)

Compound	Assigned class
C[C@@]12C[C@@]3(O)O[C@@H](O1)[C@]1(COC(=O)c4ccccc4)[C@@H]3C[C@@]12O[C@@H]1O[C@H](CO)[C@@H](O)[C@H](O)[C@@H]1O	false (0)
COc1ccc(C(C)=O)c(O)c1	false (0)
C=C1C(=CC=C2CCC[C@]3(C)[C@@H]([C@H](C)CCCC(C)(C)O)CC[C@@H]23)C[C@@H](O)C[C@@H]1O	true (1)
COc1cc(C=CC(=O)CC(=O)C=Cc2ccc(O)c(OC)c2)ccc1O	true (1)
NC1=N[C@H]2[C@H](CS[C@H]2CCCCC(=O)O)N1	false (0)

What did this assay record as the result for "CC(C=CC1=C(C)CCCC1(C)C)=CC=CC(C)=CC(=O)Nc1ccc(O)cc1" ?
true (1)

What did this assay record as the result for "N#Cc1c(C2CCNCC2)cc(-c2c(O)cccc2OCC2CC2)nc1N" ?
true (1)

What did this assay record as the result for "Nc1ccc(C(=O)Nc2cccc(-c3nc(N4CCOCC4)c4oc5ncccc5c4n3)c2)cn1" ?
true (1)

What did this assay record as the result for "Nc1nc(N)c2nc(-c3cccc(O)c3)c(-c3cccc(O)c3)nc2n1" ?
true (1)

What did this assay record as the result for "CCOC(=O)C=C[C@H](C[C@@H]1CCNC1=O)NC(=O)[C@@H](CC(=O)[C@@H](NC(=O)c1cc(C)on1)C(C)C)Cc1ccc(F)cc1" ?
false (0)

What did this assay record as the result for COc1cc(C)c(Sc2cnc(NC(=O)c3ccc(CNC(C)C(C)(C)C)cc3)s2)cc1C(=O)N1CCN(C(C)=O)CC1 (stereo not drawn) ?
true (1)
